System: 3T3-L1 pre adipocytes
Assay: Cell toxicity of compounds at various doses
Type: cell-based
Conditions: 20 μM, Day 1, 3T3-L1 pre adipocytes
measured_property: Cell toxicity

Here is how some compounds turned out for Cell toxicity.
| compound | Cell toxicity |
| --- | --- |
| CC1(C)OB(c2ccc(NC(C#N)c3cc(-c4ccccc4)on3)cc2)OC1(C)C (centres unmarked) | >10% |
| N#CC(Nc1ccc([B-](F)(F)F)cc1)c1ccco1 (centres unmarked) | 5-10% |
| Cc1cc(C(C#N)Nc2ccc(B3OC(C)(C)C(C)(C)O3)cc2)no1 (centres unmarked) | 5-10% |
| N#CC(Nc1ccc([B-](F)(F)F)cc1)c1cc(-c2ccc(F)cc2)on1 (centres unmarked) | 5-10% |

With those in mind, consider the next compound.
Recall and state the measured Cell toxicity for CC1(C)OB(c2ccc(NC(C#N)c3cc(-c4ccc(F)cc4)on3)cc2)OC1(C)C (centres unmarked) .
5-10%
